Biological target: T1, Aβ1–42 fibrils (UniProt P05067 672-713)
T1 construct: amyloid-β peptide Aβ1–42, cut from the amyloid precursor protein (APP), in fibrillar form; Aggregated (fibrillar) state of the same peptide as m15; also called fibrillar Aß1–42; Aβ fibrils; source: bought: JPT Biotech or Bachem AG (HPLC purified peptide); fibrils formed at 37°C (7 days in PBS pH 7.4 for SPR; five days in 50 mM Tris-HCl pH 7.4 for ELISA)
T1 sequence (P05067 672-713): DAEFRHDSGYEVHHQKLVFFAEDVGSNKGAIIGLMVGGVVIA
Experiment: SPR; Biacore T100, single-cycle mode, 25°C; Aβ1–42 fibrils immobilised on a CM5 chip by amine coupling; PBS pH 7.4, 30 µl/min; 100 to 62500 nM in fivefold steps, 60 s each; heterogeneous ligand model
Conditions: both partners purified
Square brackets hold non-standard residues; d marks the D form. Primed or numbered codes have the meaning given here. Ends that are not written are not given here. FITC′ = fluorescein isothiocyanate (ϕ)
quantity measured: k on2 (heterogeneous ligand model, site 2)

binder	numeric readout
[dP][dS][dH][dY][dR][dH][dI][dS][dP][dA][dQ][dK][dK](FITC′) (D-enantiomeric derivative of ACI-80 (D1): Q1P, V12K, added C-terminal lysine; also called D1-Q1P-V12K-Kϕ; source: synthetic peptide (JPT Peptide Technologies GmbH, Berlin)) [ACI-89-Kϕ]	3340
[dQ][dS][dH][dY][dR][dH][dI][dS][dP][dA][dQ][dV][dK](FITC′) (D-enantiomeric peptide ACI-80 (D1), selected by mirror image phage display on aggregated Aβ1–42, with an added C-terminal lysine; also called D1-Kϕ; source: synthetic peptide (JPT Peptide Technologies GmbH, Berlin)) [ACI-80-Kϕ]	13700
[dQ][dS][dH][dY][dR][dH][dI][dS][dP][dA][dQ][dK][dK](FITC′) (D-enantiomeric derivative of ACI-80 (D1): V12K, added C-terminal lysine; also called D1-V12K-Kϕ; source: synthetic peptide (JPT Peptide Technologies GmbH, Berlin)) [ACI-87-Kϕ]	1570
[dS][dH][dY][dR][dH][dI][dS][dP][dA][dQ][dK][dK](FITC′) (D-enantiomeric derivative of ACI-80 (D1): N-terminal glutamine deleted (Q1X), V12K, added C-terminal lysine; also called D1-Q1X-V12K-Kϕ; source: synthetic peptide (JPT Peptide Technologies GmbH, Berlin)) [ACI-88-Kϕ]	930
